Test system: Streptococcus pyogenes (CN10)
Test: Antibacterial test, Streptococcus pyogenes (agar dilution)
Assay type: cell-based
Description: Anitbacterial testing against […] (S3264) and Streptococcus pyogenes (CN10) was done with slight modifications using standard agar dilution assays as outlined in Manual of Clinical Microbiology Second Ed., E. H. Lennette. E. H. Spaulding and J. P. Traunt Eds., American Society for Microbiology, Washington, DC, 1974
In this section we review reported MIC values for a set of molecules.
RESULT TYPE: MIC (µg/mL)

> print(dat)
                                   molecule  reported.relation  experimental.value
1  CC(CO)(CO)NCc1cc2c3ccccc3ccc2c2ccccc12.Cl                  ≤                  10
2  Cl.OCC(CO)(CO)NCc1cc2c3ccccc3ccc2c2ccccc12                  =                  10
3  CC(=O)OCC(C)(COC(C)=O)NCc1cc2c3ccccc3ccc2c2ccccc12                  =                  10
4  CCC(CO)(CO)NCc1cc2c3ccccc3ccc2c2ccccc12.Cl                  =                  10
5  CC(C)(CO)NCc1cc2c3ccccc3ccc2c2ccccc12.Cl [Example 18B]                  ≤                   3

* * *

test system: CD2-F1 mice; test: LD20 in the P388/0 test mice; type: in vivo, mouse (CD2-F1); conditions: IP days 1, 5, 9, doses on a mg/kg basis
Lab note: anything with LD20 below 200 mg/kg is marked Condition met; values at 200 mg/kg or higher are marked Condition not met.

> print(dat)
                                   compound  target.desc     classification
1  C[C@@H](O)C(C)(NCc1cc2c3ccccc3ccc2c2ccccc12)[C@@H](C)O (relative stereo) [Example 5F]  CD2-F1 mice  Condition not met
2  CCC(CO)(CO)NCc1cc2c3ccccc3ccc2c2ccccc12.Cl [Example 3]  CD2-F1 mice      Condition met
3  CC(CO)(CO)NCc1cc2c3ccccc3c(Cl)cc2c2ccccc12 [Example 4B]  CD2-F1 mice      Condition met
4  CC(=O)OCC(C)(COC(C)=O)NCc1cc2c3ccccc3ccc2c2ccccc12 [Example 16]  CD2-F1 mice  Condition not met
5  CS(=O)(=O)O.C[C@H](O)C(NCc1cc2c3ccccc3ccc2c2ccccc12)[C@@H](C)O (stereo partly drawn) [Example 13D]  CD2-F1 mice  Condition not met
6  CC(CO)(CO)NCc1cc2c3ccccc3ccc2c2ccccc12.Cl [Example 1B]  CD2-F1 mice      Condition met
7  CC(CO)(CO)NCc1ccc2ccc3c4ccccc4ccc3c2c1 [Example 19H]  CD2-F1 mice      Condition met
8  CCc1cc2c3ccccc3c(CNC(C)(CO)CO)cc2c2ccccc12 [Example 15B]  CD2-F1 mice      Condition met
9  CC(C)C(CO)(CO)NCc1cc2c3ccccc3ccc2c2ccccc12 [Example 11C]  CD2-F1 mice      Condition met

* * *

tested on: CD2-F1 mice; test: LD20 in the P388/0 test mice; type: in vivo, mouse (CD2-F1); conditions: IP days 1, 5, 9, doses on a mg/kg basis
RESULT TYPE: LD20 (mg/kg)

> print(dat)
                                   molecule  experimental.value
1  CC(CO)(CCO)NCc1cc2c3ccccc3ccc2c2ccccc12 (stereo not drawn) [Example 12G]                  90
2  CC(C)(CO)NCc1cc2c3ccccc3ccc2c2ccccc12.Cl [Example 18B]                  80
3  Cl.OCC(CO)(CO)NCc1cc2c3ccccc3ccc2c2ccccc12                 100
4    CC(CO)(CO)NCc1cc2c3ccccc3ccc2c2ccccc12                 105
5       OCC(CO)NCc1cc2c3ccccc3ccc2c2ccccc12                 160
6  C[C@H](O)[C@@](C)(CO)NCc1cc2c3ccccc3ccc2c2ccccc12 (relative stereo)                  53
7  CS(=O)(=O)O.C[C@H](O)[C@@](C)(CO)NCc1cc2c3ccccc3ccc2c2ccccc12 (relative stereo)                  60
8  COCC(C)(CO)NCc1cc2c3ccccc3ccc2c2ccccc12.Cl (stereo not drawn)                 425
9  C[C@@H](O)[C@@](C)(CO)NCc1cc2c3ccccc3ccc2c2ccccc12.Cl (relative stereo)                 100
